Values from paper PMC8294059

measured target: HLA-A*0101 (Homo sapiens, UniProt P04439, A114D/A174V/A182V/D101N/D185E/E176A/E190D/L180R/Q94H/R68K/S129P/T187R/V100A/V91M/W191G)
run description: biochemical
Format: binding
condition: allele A*0101; fluorescence polarization competition; read-out: IC50 (nM), in vitro HLA binding affinity
Where a SMILES comes first, the peptide text is derived from it.
Hi! Just check whether IC50 is below 40000 nM. Below gives Criterion met, equal or above gives Criterion not met.

Q: Check if IC50 falls below 40000 nM for CC[C@H](C)[C@H](NC(=O)[C@@H]1CCCN1C(=O)[C@@H](NC(=O)[C@H](CC(=O)O)NC(=O)[C@H](CC(N)=O)NC(=O)[C@@H](N)Cc1ccccc1)C(C)C)C(=O)N[C@@H](CCCCN)C(=O)N[C@@H](CCSC)C(=O)N[C@@H](CCC(=O)O)C(=O)N[C@@H](Cc1ccc(O)cc1)C(=O)O [RH5_505] (H-FNDVPIKMEY-OH) .
Ans: Criterion met

Q: # check: IC50 < 40000 nM for CC[C@H](C)[C@H](NC(=O)[C@H](Cc1ccc(O)cc1)NC(=O)[C@H](CCC(=O)O)NC(=O)[C@H](CC(=O)O)NC(=O)[C@H](CC(N)=O)NC(=O)[C@H](CC(C)C)NC(=O)[C@@H](N)[C@@H](C)O)C(=O)N[C@H](C(=O)N[C@@H](CO)C(=O)N[C@@H](Cc1ccc(O)cc1)C(=O)O)C(C)C [CYRPA_285] (H-TLNDEYIVSY-OH)
Ans: Criterion not met

Q: Is the reported IC50 for CC[C@H](C)[C@H](NC(=O)[C@H](Cc1ccccc1)NC(=O)[C@H](CCCCN)NC(=O)[C@@H](NC(=O)[C@@H](NC(=O)[C@H](CC(=O)O)NC(=O)[C@@H](NC(=O)[C@@H](N)Cc1ccc(O)cc1)[C@@H](C)CC)[C@@H](C)O)[C@@H](C)CC)C(=O)N[C@@H](Cc1c[nH]cn1)C(=O)N[C@@H](CCCCN)C(=O)O [RH5_406] (H-YIDTIKFIHK-OH) strictly below 40000 nM?
Ans: Criterion met

Q: Here's an entry: CC(C)C[C@H](NC(=O)CNC(=O)[C@H](CC(=O)O)NC(=O)[C@H](CC(N)=O)NC(=O)[C@@H](NC(=O)[C@H](CC(N)=O)NC(=O)[C@@H](NC(=O)[C@@H](N)CC(N)=O)[C@@H](C)O)C(C)C)C(=O)N[C@@H](CCCCN)C(=O)N[C@@H](Cc1ccc(O)cc1)C(=O)O [RH5_88] (H-NTNVNDGLKY-OH) . Is its IC50 below 40000 nM?
Ans: Criterion met

Q: Answer whether the compound CC[C@H](C)[C@H](NC(=O)[C@H](Cc1c[nH]cn1)NC(=O)[C@@H](NC(=O)[C@H](CCC(=O)O)NC(=O)[C@H](CC(=O)O)NC(=O)[C@H](CCC(=O)O)NC(=O)[C@H](CCC(=O)O)NC(=O)CN)[C@@H](C)O)C(=O)N[C@@H](Cc1ccc(O)cc1)C(=O)O [CYRPA_070] (H-GEEDETHIY-OH) has IC50 strictly less than 40000 nM
Ans: Criterion not met

Q: For CC(C)C[C@H](NC(=O)[C@H](Cc1ccc(O)cc1)NC(=O)[C@H](C)NC(=O)[C@H](Cc1ccc(O)cc1)NC(=O)[C@H](CC(=O)O)NC(=O)[C@H](CC(N)=O)NC(=O)[C@@H](N)CCC(=O)O)C(=O)N[C@@H](CC(N)=O)C(=O)N[C@@H](CCCCN)C(=O)N[C@@H](Cc1ccc(O)cc1)C(=O)O [RIPR_0059] (H-ENDYAYLNKY-OH) , is the recorded IC50 below the cut-off of 40000 nM?
Ans: Criterion not met
